Entries and their combination Emax values follow.
Tested on: KCL-22 (Chronic Myelogenous Leukemia)
Assay: combination Emax (second highest fraction inhibited in the dose matrix, 72 h); higher = more inhibition; extreme values may be limits of the assay
outcomeMeasure: combination Emax

compound | outcomeMeasure | readoutNumber
Cc1nc(Nc2ncc(C(=O)Nc3c(C)cccc3Cl)s2)cc(N2CCN(CCO)CC2)n1 [Dasatinib] + CC(=O)Nc1cccc(-n2c(=O)n(C3CC3)c(=O)c3c(Nc4ccc(I)cc4F)n(C)c(=O)c(C)c32)c1 [Trametinib] (first compound max 2 µM, 7x7, partner max 1 µM) | combination Emax | 0.93
Cc1cc2ncnn2cc1Nc1ncc2c(n1)n(C1CCOCC1)c(=O)n2C [AZD7648] + C[C@@H]1COCCN1C2=NC(=NC(=C2)C3(CC3)[S@](=N)(=O)C)C4=C5C=CNC5=NC=C4 [AZD6738] (first compound max 10 µM, 7x7, partner max 10 µM) | combination Emax | 0.983

###

System: BL-41 (Burkitt's Lymphoma);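 note: after 72 h of two-drug dosing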
Assay: Bliss excess, mean over the matrix (fraction); higher = more synergy
Entries and their Bliss excess values follow.

compound | Bliss excess
NC1(C(=O)N[C@@H](CCO)c2ccc(Cl)cc2)CCN(c2ncnc3[nH]ccc23)CC1 [Capivasertib] + CC(C)n1c(=O)n(C)c2cnc3cc(F)c(-c4ccc(OCCCN5CCCCC5)nc4)cc3c21 [AZD1390] (first compound max 10 µM, 7x7, partner max 0.3 µM) | -0.193
COc1nnc2ccc(N3CCC(c4ccc(OCCN5CCN(C)C(=O)[C@H]5C)cc4)CC3)nn12 [AZD5153] + C=CCn1c(=O)c2cnc(Nc3ccc(N4CCN(C)CC4)cc3)nc2n1-c1cccc(C(C)(C)O)n1 [AZD1775] (first compound max 1 µM, partner max 1 µM) | -0.0454
CN(CCO)CC[C@H](CSc1ccccc1)Nc1ccc(S(=O)(=O)NC(=O)c2ccc(N3CCC([C@@H](O)c4ccccc4-c4ccc(Cl)cc4)CC3)cc2)cc1S(=O)(=O)C(F)(F)F [AZD4320] + CCN(CCO)CCCOc1ccc2c(Nc3cc(CC(=O)Nc4cccc(F)c4)[nH]n3)ncnc2c1 [AZD2811] (first compound max 1 µM, 7x7, partner max 1 µM) | -0.0172
COc1nnc2ccc(N3CCC(c4ccc(OCCN5CCN(C)C(=O)[C@H]5C)cc4)CC3)nn12 [AZD5153] + CC1(C)CCC(CN2CCN(c3ccc(C(=O)NS(=O)(=O)c4ccc(NCC5CCOCC5)c([N+](=O)[O-])c4)c(Oc4cnc5[nH]ccc5c4)c3)CC2)=C(c2ccc(Cl)cc2)C1 [Venetoclax] (first compound max 1 µM, 7x7, partner max 1 µM) | -0.0551
Cn1cnc2c(F)c(Nc3ccc(Br)cc3Cl)c(C(=O)NOCCO)cc21 [Selumetinib] + CCN(CCO)CCCOc1ccc2c(Nc3cc(CC(=O)Nc4cccc(F)c4)[nH]n3)ncnc2c1 [AZD2811] (first compound max 10 µM, 7x7, partner max 1 µM) | 0.0338
Cc1c2c(nn1C)CSCc1cc(n(C)n1)CSc1cc(c3ccccc3c1)OCCCc1c(C(=O)O)n(C)c3c-2c(Cl)ccc13 [AZD5991] + CC(=O)O[C@H]1C(=O)[C@@]2(C)[C@H]([C@H](OC(=O)c3ccccc3)[C@]3(O)C[C@H](OC(=O)[C@H](O)[C@@H](NC(=O)c4ccccc4)c4ccccc4)C(C)=C1C3(C)C)[C@]1(OC(C)=O)CO[C@@H]1C[C@@H]2O [Paclitaxel] (first compound max 1 µM, 7x7, partner max 3 µM) | -0.0098
CC(=O)c1c(C)c2cnc(Nc3ccc(N4CCNCC4)cn3)nc2n(C2CCCC2)c1=O [Palbociclib] + CC1(C)CCC(CN2CCN(c3ccc(C(=O)NS(=O)(=O)c4ccc(NCC5CCOCC5)c([N+](=O)[O-])c4)c(Oc4cnc5[nH]ccc5c4)c3)CC2)=C(c2ccc(Cl)cc2)C1 [Venetoclax] (first compound max 10 µM, 7x7, partner max 1 µM) | -0.0842
Cc1nc(-c2cn3c(n2)-c2ccc(-c4cnn(C(C)(C)C(N)=O)c4)cc2OCC3)n(C(C)C)n1 [Taselisib] + O=C(Nc1ccc2[nH]nc(-c3ccncc3)c2c1)[C@@H]1CCN(CC(=O)N2CCN(c3ccc(-c4ncccn4)cc3)CC2)C1 [SCH772984] (first compound max 10 µM, 7x7, partner max 5 µM) | 0.0266
CCN(CCO)CCCOc1ccc2c(Nc3cc(CC(=O)Nc4cccc(F)c4)[nH]n3)ncnc2c1 [AZD2811] + C[C@@H]1COCCN1C2=NC(=NC(=C2)C3(CC3)[S@](=N)(=O)C)C4=C5C=CNC5=NC=C4 [AZD6738] (first compound max 1 µM, 7x7, partner max 10 µM) | -0.0647
CN(CCO)CC[C@H](CSc1ccccc1)Nc1ccc(S(=O)(=O)NC(=O)c2ccc(N3CCC([C@@H](O)c4ccccc4-c4ccc(Cl)cc4)CC3)cc2)cc1S(=O)(=O)C(F)(F)F [AZD4320] + C1CN(CCC1(C(=O)N[C@@H](CCO)C2=CC=C(C=C2)Cl)N)C3=NC=NC4=C3C=CN4 [Capivasertib] (first compound max 1 µM, 7x7, partner max 3 µM) | -0.0146
CN(CCO)CC[C@H](CSc1ccccc1)Nc1ccc(S(=O)(=O)NC(=O)c2ccc(N3CCC([C@@H](O)c4ccccc4-c4ccc(Cl)cc4)CC3)cc2)cc1S(=O)(=O)C(F)(F)F [AZD4320] + C=CCn1c(=O)c2cnc(Nc3ccc(N4CCN(C)CC4)cc3)nc2n1-c1cccc(C(C)(C)O)n1 [AZD1775] (first compound max 1 µM, partner max 1 µM) | 0.0361
CN(CCO)CC[C@H](CSc1ccccc1)Nc1ccc(S(=O)(=O)NC(=O)c2ccc(N3CCC([C@@H](O)c4ccccc4-c4ccc(Cl)cc4)CC3)cc2)cc1S(=O)(=O)C(F)(F)F [AZD4320] + Nc1ccn([C@@H]2O[C@H](CO)[C@@H](O)C2(F)F)c(=O)n1 [Gemcitabine] (first compound max 1 µM, 7x7, partner max 0.3 µM) | -0.0094
